Tested on: Fibrinogen (Alexa647-labelled)
Test: fibrinogen binders on compound microarrays, profiling panel, artefact control for SMM control-protein annotation, biochemical, small-molecule microarray, 635/667 nm fluorescence (AID 1131);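 note: z-score merges 667 nm fluorescence with per-spot signal-to-noise over triplicate slides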
Conditions: fibrinogen-A647 binding fluorescence, higher = more signal
Endpoint label: composite z-score
Answers are plain numbers.

Consider the worked cases shown below.
q: Assign composite z-score to the following record: [N-]=[N+]=Nc1ccccc1C[C@]1(C(=O)NCC(O)CO)N=C(c2ccc(OCCCO)cc2)O[C@H]1c1ccccc1N=[N+]=[N-] (some centres not stated)
a: 0.578

q: Assign composite z-score to the following record: `COc1ccc(C#Cc2ccc3c(c2)[C@]2(C(=O)N3)[C@H](c3ccccc3OCCO)N3[C@H](c4ccccc4)[C@H](c4ccccc4)OC(=O)[C@H]3[C@@H]2C(=O)O)cc1`
a: 0.951

q: Assign composite z-score to the following record: `COCCOC(=O)N1C(=O)[C@@]2(c3cc(C#CCCO)ccc31)[C@H](C(=O)N1CCc3cc(OC)c(OC)cc3C1)[C@H]1C(=O)O[C@H](c3ccccc3)[C@H](c3ccccc3)N1[C@@H]2c1ccc(O)cc1`
a: 0.904

q: Assign composite z-score to the following record: O=C1OCCC/C=C\[C@H]2OC34C=CCN(Cc5ccccc5)C(=O)[C@H]3N(CCCCCCO)C(=O)[C@@H]4C12 (some centres not stated)
a: -1.98

q: Assign composite z-score to the following record: `C=CC[C@@]1(C(=O)NCc2ccccc2)N=C(c2ccc(OCCCO)cc2)O[C@@H]1c1ccccc1N=[N+]=[N-]`
a: 0.993

// each compound listed below needs its composite z-score
1. COc1ccc([Si](C)(C)[C@H]2[C@H](CC(=O)N3Cc4ccccc4C[C@H]3CO)O[C@@]3(C(=O)N(Cc4ccc(N5CCC5=O)cc4)c4ccccc43)[C@@H]2C)cc1
2. CC1(C)[C@@H]2CC(C(O)C3C=CC4C(=O)N(c5ccccc5)C(=O)C4N3Nc3ccccc3)=C[C@H]1C2 (some centres not stated)

a:
1: 0.42; 2: 0.153

// each compound listed below needs its composite z-score
1. O=C1OCCC/C=C\[C@H]2OC34C=CCN(CCN5CCOCC5)C(=O)[C@H]3N(CCCO)C(=O)[C@@H]4C12 (some centres not stated)
2. CC(C)c1ccc(NN2C(C(O)C(c3ccccc3)c3ccccc3)C=CC3C(=O)N(c4ccccc4)C(=O)C32)cc1 (configuration not stated)
3. O=C1O[C@H](c2ccccc2)[C@H](c2ccccc2)N2[C@H]1[C@@H](C(=O)O)[C@]1(C(=O)Nc3ccc(C#CCCO)cc31)[C@H]2c1ccc(O)cc1
4. CCCCC(O)C1C=CC2C(=O)N(c3ccccc3)C(=O)C2N1Nc1ccccc1F (configuration not stated)
5. [N-]=[N+]=NCc1ccccc1C[C@]1(C(=O)O)N=C(c2ccc(OCCCO)cc2)O[C@H]1c1ccccc1N=[N+]=[N-]
6. COCCOC(=O)N1C(=O)[C@@]2(c3cc(C#Cc4ccc(OC)cc4)ccc31)[C@H](C(=O)N1CCCCCCC1)[C@H]1C(=O)O[C@H](c3ccccc3)[C@H](c3ccccc3)N1[C@@H]2c1ccc(OCCO)cc1

a:
1. -1.16
2. 0.975
3. -0.862
4. 0.924
5. 0.985
6. 0.905

// each compound listed below needs its composite z-score
1. CCOC(=O)C[C@H]1[C@H](OC(=O)Cc2ccc3c(c2)OCO3)[C@@H](NC(=O)c2ccc3ccccc3c2)c2cc(OCCCO)ccc2N1C(=O)c1ccccc1
2. CC(C)C[C@H]1NC(=O)[C@@]23C(=O)N[C@@H](Cc4ccccc4)C2[C@H](C)[C@@]2(C)O[C@H]2C3/C=C/C/C=C\CNC(=O)[C@H](Cc2ccccc2)NC1=O (some centres not stated)
3. O=C1C2C=CC(C(O)c3ccc(F)cc3)N(Nc3ccccc3F)C2C(=O)N1c1ccccc1 (configuration not stated)
4. COC(=O)[C@@]1(Cc2ccc(OC)cc2)[C@H]2c3cc(C(=O)N4CCCC4)n(Cc4ccsc4Br)c3C[C@H]2CN1C(=O)c1ccccc1
5. CN1C(=O)C2C=CC(C(O)C3=C[C@H]4C[C@@H](C3)C4(C)C)N(Nc3ccccc3)C2C1=O (some centres not stated)
6. C[C@@H]1ON(c2cccc(C(=O)OC(C)(C)C)c2)[C@H](c2ccc(Br)cc2)[C@H]1C(=O)N1C(=O)OC[C@H]1Cc1ccccc1
7. COCCCNC(=O)C1N=C(c2ccc(OCCCO)cc2)N(c2ccccc2)O1 (configuration not stated)

a:
1. 0.823
2. 0.183
3. 0.958
4. -0.152
5. 0.816
6. 0.937
7. 0.95

// each compound listed below needs its composite z-score
1. C=C/C=C/[C@H]1C(=C)CN([C@@H](Cc2ccccc2)C(=O)OC)[C@@H]1[C@H](O)Cc1ccccc1
2. CC(C)(C)C(=O)N[C@@H](c1ccc(Cl)cc1)[C@]1(C)C[C@H]1C1CCCCC1
3. COCCCN1C(=O)[C@@]2(c3ccc([N+](=O)[O-])cc3)CC(=O)N(C3CCCCC3)[C@@H]2c2ccc(CO)cc21
4. [N-]=[N+]=NCc1ccccc1[C@H]1OC(c2ccc(OCCCO)cc2)=N[C@@]1(Cc1ccccc1)C(=O)NCc1ccccc1

a:
1: -0.108; 2: 1.02; 3: -0.538; 4: 0.954

Values were extracted from PubChem BioAssay.
